- Measurement description: Hematology assays in cynomolgus monkeys (Example 46)
- Assay type: in vivo
- Condition parameters: Day 45
- Procedure: Groups, each consisting of two male and two female monkeys, were injected subcutaneously with 25 mg/kg of ISIS 416850, ISIS 449709, ISIS 445522, ISIS 449710, ISIS 449707, ISIS 449711, ISIS 449708, 416858, and ISIS 445531. […] Body weights were taken 14 days and 7 days before the start of treatment and were then measured weekly throughout the treatment period. […]
Strand notation (5' to 3'): a small letter for the sugar, then the base; units joined by * are phosphorothioate-linked, units joined directly phosphodiester-linked; [ ] holds rarer units or linkages, { } end groups; capitals alone tell only the bases. e = 2'-O-(2-methoxyethyl) (MOE); [5mC] = 5-methylcytosine; d = 2'-deoxy (DNA)
Measurement kind: neutrophils (%)
Number in %, nothing else.

Illustrative cases are given below, each with its answer.
- ISIS 445522: 5-8-5 or 6-8-6 MOE microwalk gapmer (Table 44) (antisense eG*e[5mC]*eA*e[5mC]*eA*dG*dT*dT*dT*d[5mC]*dT*dG*dG*e[5mC]*eA*eG*eG*e[5mC]): 69
- ISIS 449708: 3-8-3, 4-8-4, 2-10-2, 3-10-3 or 4-10-4 MOE microwalk gapmer (Table 46) (antisense eA*e[5mC]*eA*dG*dT*dT*dT*d[5mC]*dT*dG*dG*e[5mC]*eA*eG): 61
- ISIS 445531: 5-8-5 or 6-8-6 MOE microwalk gapmer (Table 44) (antisense eG*eG*e[5mC]*eA*eT*dT*dG*dG*dT*dG*d[5mC]*dA*d[5mC]*eA*eG*eT*eT*eT): 93
- ISIS 449711: 3-8-3, 4-8-4, 2-10-2, 3-10-3 or 4-10-4 MOE microwalk gapmer (Table 46) (antisense eA*e[5mC]*dA*dG*dT*dT*dT*d[5mC]*dT*dG*dG*d[5mC]*eA*eG): 45

// below: neutrophils requested for another substance
*Q* Give neutrophils for ISIS 449709: 3-8-3, 4-8-4, 2-10-2, 3-10-3 or 4-10-4 MOE microwalk gapmer (Table 46) (antisense eG*e[5mC]*eA*e[5mC]*dA*dG*dT*dT*dT*d[5mC]*dT*dG*dG*d[5mC]*eA*eG*eG*e[5mC])
*A* 77
